- TARGET_SYSTEM: T1, human soluble urokinase plasminogen activator receptor (hsuPAR) (human, UniProt Q03405 23-303, limits assumed)
- T1 construct: Target antigen of the off-rate screen; also called human suPAR; rhuPAR-His
- T1 sequence (Q03405 23-303 limits assumed): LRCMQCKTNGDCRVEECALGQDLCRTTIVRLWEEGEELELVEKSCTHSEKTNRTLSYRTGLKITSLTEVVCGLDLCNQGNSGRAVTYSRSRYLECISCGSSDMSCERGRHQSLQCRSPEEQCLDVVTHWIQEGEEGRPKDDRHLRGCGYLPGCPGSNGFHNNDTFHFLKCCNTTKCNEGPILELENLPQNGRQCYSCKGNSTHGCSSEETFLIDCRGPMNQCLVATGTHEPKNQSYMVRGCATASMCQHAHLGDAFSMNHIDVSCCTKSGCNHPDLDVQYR
- ASSAY_METHOD_TEXT: BLI (Octet) off-rate screen of scFv clones
MEASURED_PARAMETER: koff

- BINDER: "suPAR_DB03_A11 (scFv, V domains shown, screened as scFv) VH: QVQLVQSGAEVKKPGASVKVSCKASGYTFTSYYMHWVRQAPGQGLEWVGWMDPNSGGTSYAQKFQGRVTMTRDTSTSTVYMELSSLRSEDTAVYYCARGYDVDWFVYWGQGTLVTVSS VL: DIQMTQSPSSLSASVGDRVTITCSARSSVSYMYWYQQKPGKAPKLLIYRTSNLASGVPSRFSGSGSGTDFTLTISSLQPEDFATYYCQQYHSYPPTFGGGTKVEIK"
  MEASURED_PARAMETER: "koff"
  MEAS_VALUE: "0.00181 s⁻¹"
- BINDER: "suPAR_DB03_B08 (scFv, V domains shown, screened as scFv) VH: QVQLVQSGAEVKKPGASVKVSCKASGYAFTGYYMHWVRQAPGQGLEWMGWIDHENGNTIYDQKFQGRVTMTRDTSTSTVYMELSSLRSEDTAVYYCARGYDVDWFVYWGQGTLVTVSS VL: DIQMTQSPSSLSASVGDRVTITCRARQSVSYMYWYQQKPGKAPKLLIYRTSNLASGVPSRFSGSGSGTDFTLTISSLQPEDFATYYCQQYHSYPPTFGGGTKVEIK"
  MEASURED_PARAMETER: "koff"
  MEAS_VALUE: "0.00133 s⁻¹"
- BINDER: "suPAR_DB03_B05 (scFv, V domains shown, screened as scFv) VH: QVQLVQSGAEVKKPGASVKVSCKASGYTFTSYYMHWVRQAPGQGLEWMGWIDPENGNTIYDQKFQGRVTMTRDTSTSTVYMELSSLRSEDTAVYYCARGYDIDWFVYWGQGTLVTVSS VL: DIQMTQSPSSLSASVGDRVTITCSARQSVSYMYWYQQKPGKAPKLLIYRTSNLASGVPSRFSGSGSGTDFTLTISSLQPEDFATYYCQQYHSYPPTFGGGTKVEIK"
  MEASURED_PARAMETER: "koff"
  MEAS_VALUE: "0.00536 s⁻¹"
- BINDER: "suPAR_DB03_D05 (scFv, V domains shown, screened as scFv) VH: QVQLVQSGAEVKKPGASVKVSCKASGDNFTTYYMHWVRQAPGQGLEWMGWIDPENGNTIYAQKFQGRVTMTRDTSTSTVYMELSSLRSEDTAVYYCARGYDVDWFVYWGQGTLVTVSS VL: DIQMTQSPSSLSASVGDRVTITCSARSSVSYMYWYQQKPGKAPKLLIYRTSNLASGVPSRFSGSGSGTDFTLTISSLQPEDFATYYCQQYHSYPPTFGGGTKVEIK"
  MEASURED_PARAMETER: "koff"
  MEAS_VALUE: "0.00482 s⁻¹"
- BINDER: "suPAR_DB03_A12 (scFv, V domains shown, screened as scFv) VH: QVQLVQSGAEVKKPGASVKVSCKASGYTFSRYYMHWVRQAPGQGLEWIGWMNPNTGDTGYAQKFQGRVTMTRDTSTSTVYMELSSLRSEDTAVYYCARGYDVDFFVYWGQGTLVTVSS VL: DIQMTQSPSSLSASVGDRVTITCRASQGISGWLAWYQQKPGKAPKLLIYDASSLQSGVPSRFSGSGSGTDFTLTISSLQPEDFATYYCQQSYSDPLTFGGGTKVEIK"
  MEASURED_PARAMETER: "koff"
  MEAS_VALUE: "0.0544 s⁻¹"
- BINDER: "suPAR_DB02_H09 (scFv, V domains shown, screened as scFv) VH: QVQLVQSGAEVKKPGASVKVSCKASGYTFTSYYMHWVRQAPGQGLEWMGWIDPENGNTIYAQKFQGRVTMTRDTSTSTVYMELSSLRSEDTAVYYCARGYDVDWFVFWGQGTLVTVSS VL: DIQMTQSPSSLSASVGDRVTITCSARSSVSYMYWYQQKPGKAPKLLIYATSNLQSGVPSRFSGSGSGTDFTLTISSLQPEDFATYYCQQYHSYPPTFGGGTKVEIK"
  MEASURED_PARAMETER: "koff"
  MEAS_VALUE: "0.0338 s⁻¹"
- BINDER: "suPAR_DB03_B02 (scFv, V domains shown, screened as scFv) VH: QVQLVQSGAEVKKPGASVKVSCKASGDTFTSYYMHWVRQAPGQGLEWMGWIDHENGSTSYDQKFQGRVTMTRDTSTSTVYMELSSLRSEDTAVYYCARGYDVDWFVYWGQGTLVTVSS VL: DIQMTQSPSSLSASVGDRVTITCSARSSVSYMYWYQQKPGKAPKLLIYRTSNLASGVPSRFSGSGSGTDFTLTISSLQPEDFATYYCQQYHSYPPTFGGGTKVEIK"
  MEASURED_PARAMETER: "koff"
  MEAS_VALUE: "0.0024 s⁻¹"
- BINDER: "suPAR_DB03_D02 (scFv, V domains shown, screened as scFv) VH: QVQLVQSGAEVKKPGASVKVSCKASGYTFTRYYLHWVRQAPGQGLEWMGWIDPENGNTIYAQKFQGRVTMTRDTSTSTVYMELSSLRSEDTAVYYCARGYDVDWFVYWGQGTLVTVSS VL: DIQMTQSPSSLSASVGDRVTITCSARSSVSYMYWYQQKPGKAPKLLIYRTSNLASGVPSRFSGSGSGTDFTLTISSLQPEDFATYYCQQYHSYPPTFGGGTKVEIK"
  MEASURED_PARAMETER: "koff"
  MEAS_VALUE: "0.00755 s⁻¹"
- BINDER: "suPAR_DB02_H06 (scFv, V domains shown, screened as scFv) VH: QVQLVQSGAEVKKPGASVKVSCKASGFNIKDYYIHWVRQAPGQGLEWMGWIDPEGGNTIYAQKFQGRVTMTRDTSTSTVYMELSSLRSEDTAVYYCARGYDVDWFVYWGQGTLVTVSS VL: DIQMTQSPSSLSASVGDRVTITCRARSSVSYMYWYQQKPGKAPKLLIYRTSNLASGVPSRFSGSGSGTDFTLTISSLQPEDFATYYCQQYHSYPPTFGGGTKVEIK"
  MEASURED_PARAMETER: "koff"
  MEAS_VALUE: "0.00305 s⁻¹"
- BINDER: "suPAR_DB03_E09 (scFv, V domains shown, screened as scFv) VH: QVQLVQSGAEVKKPGASVKVSCKASGFNIKDYYIHWVRQAPGQGLEWMGWIDPNSGGTNYAQKFQGRVTMTRDTSTSTVYMELSSLRSEDTAVYYCARGYDVDWFVYWGQGTLVTVSS VL: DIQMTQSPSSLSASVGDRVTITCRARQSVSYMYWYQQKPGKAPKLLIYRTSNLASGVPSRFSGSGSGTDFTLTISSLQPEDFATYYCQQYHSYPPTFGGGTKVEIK"
  MEASURED_PARAMETER: "koff"
  MEAS_VALUE: "0.00426 s⁻¹"
